- system_name: Recombinant STAT6 protein (STAT6(W123-T658)) (Homo sapiens, UniProt P42226)
- Construct: Recombinant STAT6 protein (STAT6(W123-T658))
- Sequence (P42226 123-658): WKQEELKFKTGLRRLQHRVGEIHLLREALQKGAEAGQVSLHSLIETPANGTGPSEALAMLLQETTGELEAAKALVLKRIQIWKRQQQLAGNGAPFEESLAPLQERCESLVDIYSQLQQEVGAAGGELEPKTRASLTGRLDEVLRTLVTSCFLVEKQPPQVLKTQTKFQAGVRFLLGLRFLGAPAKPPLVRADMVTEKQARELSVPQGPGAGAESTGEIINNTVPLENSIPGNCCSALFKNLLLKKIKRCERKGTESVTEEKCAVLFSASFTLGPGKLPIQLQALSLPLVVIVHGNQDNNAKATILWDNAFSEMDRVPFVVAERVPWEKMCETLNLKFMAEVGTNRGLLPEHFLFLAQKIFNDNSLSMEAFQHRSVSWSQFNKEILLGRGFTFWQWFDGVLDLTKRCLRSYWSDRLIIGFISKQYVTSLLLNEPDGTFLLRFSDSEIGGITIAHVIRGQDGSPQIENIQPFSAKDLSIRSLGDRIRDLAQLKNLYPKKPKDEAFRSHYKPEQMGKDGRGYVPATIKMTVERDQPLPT
- assay_procedure: STAT6 Fluorescence Polarization (FP) Assay
- test_parameters: STAT6(W123-T658) 250 nM, probe 5-FAM-ApYKPFQDLI-NH2 2 nM, 45-minute incubation
pIC50: −log10 of the molar value.
Consider the following molecules and their measured pIC50 readings.

Consider the reported pIC50 for these molecules:
{"molecule": "CC(=O)N1CC[C@H]2CC[C@@H](C(=O)Nc3ccc(-c4ccccc4)cc3[N+](=O)[O-])N2C(=O)[C@@H](NC(=O)c2cc3cc(C(F)(F)P(=O)(O)O)ccc3s2)C1 [Compound 178]", "parameter_measured": "pIC50", "result": "5.52 to 6.52"}
{"molecule": "O=C(N[C@H]1CN(CC(F)(F)F)CC[C@H]2CC[C@@H](C(=O)N3CC(C(=O)N4CCOCC4)C3)N2C1=O)c1cc2cc(C(F)(F)P(=O)(O)O)ccc2s1 [Compound 277]", "parameter_measured": "pIC50", "result": "4.52 to 5.52"}
{"molecule": "N#Cc1cccc(C2CN(C(=O)[C@@H]3CC[C@@H]4CCN(Cc5ncccn5)C[C@H](NC(=O)c5cc6cc(CP(=O)(O)O)ccc6s5)C(=O)N43)C2)n1 [Compound 399]", "parameter_measured": "pIC50", "result": "< 4.52"}
{"molecule": "CC(=O)N1CC[C@H]2CC[C@@H](C(=O)N(C)c3ccccc3)N2C(=O)[C@@H](NC(=O)c2ccc3ccc(CP(=O)(O)O)cc3c2)C1 [Compound 15]", "parameter_measured": "pIC50", "result": "4.52 to 5.52"}

Kindly review the next molecule as well.
Incoming: Please report the recorded pIC50 for CC(=O)N1CC[C@H]2CC[C@@H](C(=O)N(C)c3ccc(C(F)F)cc3)N2C(=O)[C@@H](NC(=O)c2cc3cc(C(F)(F)P(=O)(O)O)ccc3s2)C1 [Compound 202] .
Outgoing: 5.52 to 6.52
